Biological target: Nuclear receptor subfamily 1 group I member 2 (Homo sapiens) (UniProt O75469)
Sequence (O75469 whole entry, looked up): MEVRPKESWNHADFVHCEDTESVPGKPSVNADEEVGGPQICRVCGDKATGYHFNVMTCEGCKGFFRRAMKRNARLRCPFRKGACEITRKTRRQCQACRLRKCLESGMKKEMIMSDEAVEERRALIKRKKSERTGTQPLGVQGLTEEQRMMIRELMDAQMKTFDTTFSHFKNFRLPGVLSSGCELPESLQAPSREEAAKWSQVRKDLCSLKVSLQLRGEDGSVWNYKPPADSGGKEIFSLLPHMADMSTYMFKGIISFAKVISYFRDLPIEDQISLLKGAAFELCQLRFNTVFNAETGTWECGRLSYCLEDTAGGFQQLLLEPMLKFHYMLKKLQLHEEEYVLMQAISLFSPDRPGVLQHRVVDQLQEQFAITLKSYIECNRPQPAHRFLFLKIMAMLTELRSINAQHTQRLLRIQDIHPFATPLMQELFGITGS
Assay: Human pregnane X receptor (PXR) small molecule agonists, qHTS assay (AID 1346982); also: nearly all actives have a fitted effect of over 35% in size; as to activation: % is scaled to controls: 0 for no effect and ±100 for the full control effect
Details: PXR-Luc HepG2, CYP3A4 luciferase reporter, 24 h; series mostly up to 92.4 µM
Results filed as inconclusive are left out. The source made the active and inactive calls. Calls follow the shape of the dose curve; as a rule, active = well fitted activation curve with a large enough effect in the repeat runs; inconclusive = weak or mixed curves; inactive = no such curve, though single readings can be large or run the other way.
Form entry, call: pick from 1.0 (active), 0.0 (inactive)

Some solved cases for reference:
ENTRY SMILES	ASSIGNED LABEL
O=P(O)(O)C(O)(Cc1cccnc1)P(=O)(O)O	0.0
CC(=O)SC[C@@H](C)C(=O)N1CCC[C@H]1C(=O)N[C@@H](Cc1ccccc1)C(=O)O	0.0
Nc1nc(Cl)cc(Cl)n1	0.0
CC(=O)c1ccc2ccc3ccccc3c2c1	1.0
Cc1nc2ccc(Cl)cc2[nH]1	1.0
Cc1cc(=O)oc2cc(O[C@@H]3SC[C@@H](O)[C@H](O)[C@H]3O)ccc12	0.0

Could you kindly confirm the outcome this assay logged for `C=CCn1cc[n+](C)c1` ?
0.0

Could you kindly confirm the outcome this assay logged for `CCCCc1ccc(Cl)cc1` ?
0.0

Could you kindly confirm the outcome this assay logged for `CCN(CC)CC` ?
0.0

Could you kindly confirm the outcome this assay logged for `CN(C)CCc1c[nH]c2ccc(C[C@H]3COC(=O)N3)cc12` ?
0.0

Could you kindly confirm the outcome this assay logged for `O=C(OOC(=O)c1ccccc1)c1ccccc1` ?
0.0

----------
Experiment: qHTS RealTime-Glo MT Cell Viability Assay in HEK293 cells - 16 hour (AID 1224872); also: top concentration of the series differs between compounds; % is scaled to controls: 0 for no effect and ±100 for the full control effect; nearly all actives have a fitted effect of over 50% in size
Details: RealTime-Glo luminescence; series mostly up to 76.8 µM
Inconclusive results are not listed. The source made the active and inactive calls. The call rests on the fitted dose curve; in most records, active means well fitted cell-killing curve with a large enough effect in the repeat runs; inconclusive means weak or mixed curves, or effect the other way; inactive means flat fitted curve, though single readings scatter.
READOUT LABEL: activity change, negative = cytotoxicity

Past entries and their recorded results:
MOLECULE	activity change, negative = cytotoxicity
CCOCCOCCOC(C)=O	inactive
C=CCN(CC=C)CC=C	inactive
COC(=O)c1ccc(NC(C)=O)cc1OC	inactive
BrCCOc1ccccc1	inactive

Here are 2 molecules. What values of activity change, negative = cytotoxicity were reported for them?
1. CC(C)c1cc(C(C)C)cc(C(C)C)c1
2. O=C(O)CCCCCCCCCC(=O)O

inactive
inactive

----------
Molecular target: Androgen receptor (Homo sapiens)
Experiment: qHTS assay to identify small molecule agonists of the androgen receptor (AR) signaling pathway using the MDA cell line (AID 743040; also: % is scaled to controls: 0 for no effect and ±100 for the full control effect; nearly all actives have a fitted effect of over 20% in size)
Settings: MDA-kb2 AR-luc cells, MMTV luciferase, 16 h, hits give high values; series mostly up to 70.3 µM
The source made the active and inactive calls. The call rests on the fitted dose curve; in most records, active means well fitted activation curve with a large enough effect in the repeat runs; inconclusive means weak or mixed curves; inactive means flat fitted curve, though single readings scatter.
READOUT LABEL: activity change

COMPOUND	activity change
CC(O)C(CO)C(C)O (stereo unspecified)	inactive
Nc1cc(S(=O)(=O)O)ccc1O	inactive
COCc1nnc(-c2ccc[n+]([O-])c2)n1-c1c(Cl)c(Cl)cc2[nH]c(=O)c(=O)[nH]c12	inactive
CCOC(=O)[C@H](CCc1ccccc1)N[C@H]1CS[C@H](c2cccs2)CN(CC(=O)O)C1=O	inactive
COc1cc(OC)cc(OC)c1	inactive
O=C[C@@H](O)[C@H](O)[C@H](O)CO	inactive
CCCCCCCCC1CO1 (stereo unspecified)	inactive
CC(C)CC(O)Cc1ccccc1 (stereo unspecified)	inactive
CC(=O)OC1CCC(C(C)(C)C)CC1 (stereo unspecified)	inactive
CC/C=C\CCOC(=O)c1ccccc1	inactive

Here are 6 compounds. What values of activity change were reported for them?
1. CC(C)OC(=O)C(C(=O)OC(C)C)=C1SC=CS1
2. CCCCCCCCCCCCCCCCN(C)C
3. O=C1c2ccccc2C(=O)N1CO
4. NNC(=O)OCc1ccccc1
5. Cc1ccc(O)c(C(=O)c2ccccc2)c1
6. C/C(=N\O)c1ccc(OCC(=O)N2CCCCC2)cc1

1. inactive
2. 0.294% [at 8.47 µM] (inactive)
3. inactive
4. inactive
5. inactive
6. inactive

----------
Test: qHTS assay to identify small molecule HDAC inhibitors (AID 1259364);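 also: wild-type HCT-116 cells with endogenous class I/II HDAC activity; top concentration of the series differs between compounds; % is scaled to controls: 0 for no effect and ±100 for the full control effect; nearly all actives have a fitted effect of over 45% in size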
Conditions: HCT-116 HDAC-Glo I/II luminescence, 2 h; series mostly up to 92.4 µM
Results filed as inconclusive are left out. Active and inactive are the calls of the source. Calls follow the shape of the dose curve; as a rule, active = well fitted inhibition curve with a large enough effect in the repeat runs; inconclusive = weak or mixed curves; inactive = flat fitted curve, though single readings scatter.

COMPOUND	activity change, negative = inhibition
O=C(O)COc1ccc2ccccc2c1	inactive
C[C@@H]1NC(=O)[C@@H](N)CNC(=O)[C@H](C2CCNC(N)=N2)NC(=O)/C(=C/NC(N)=O)NC(=O)[C@H](CNC(=O)C[C@@H](N)CCCN)NC1=O (some centres undefined)	-0.0991% [at 0.349 µM] (inactive)
CO/N=C(\C(=O)O)c1csc(NC(=O)CCl)n1	inactive
NNC(=O)OCc1ccccc1	inactive

----------
Target: Thyrotropin-releasing hormone receptor (Homo sapiens) (UniProt P34981)
Sequence (P34981 whole entry, looked up): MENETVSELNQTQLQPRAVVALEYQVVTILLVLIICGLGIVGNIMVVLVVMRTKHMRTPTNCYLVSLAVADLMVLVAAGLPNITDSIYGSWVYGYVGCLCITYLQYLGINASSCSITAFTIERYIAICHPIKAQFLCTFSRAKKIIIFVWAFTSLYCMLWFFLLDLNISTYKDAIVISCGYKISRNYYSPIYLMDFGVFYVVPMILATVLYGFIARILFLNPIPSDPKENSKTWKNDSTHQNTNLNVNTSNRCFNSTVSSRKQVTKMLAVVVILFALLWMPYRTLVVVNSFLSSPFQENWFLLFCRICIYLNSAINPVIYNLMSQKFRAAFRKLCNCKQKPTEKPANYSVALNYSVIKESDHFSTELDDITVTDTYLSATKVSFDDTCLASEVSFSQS
Assay: qHTS assay to identify small molecule antagonists of the thyrotropin-releasing hormone receptor (TRHR) signaling pathway (AID 1346877); also: % is scaled to controls: 0 for no effect and ±100 for the full control effect
Settings: TRHR-HEK293, TRH-induced calcium fluorescence, antagonist mode; series mostly up to 51.3 µM
Experimental: National Center for Advancing Translational Sciences [NCATS] NIH Chemical Genomics Center [NCGC] U.S. Environmental Protection Agency [EPA] National Institutes of Environmental Health Sciences [NIEHS] National Toxicology Program [NTP] […] The TRHR-Hek293 cells were dispensed at 1500cells/4uL/well in 1536-well black-clear bottom plates using a Multidrop dispenser. […] The fluorescence intensity in the plates was measured using FDSS 7000EX kinetic plate reader for 3 min at 1 sec intervals. […]
Calls of active or inactive are those of the source. Calls come from the whole dose curve; as a rule, active = well fitted inhibition curve with a large enough effect in the repeat runs (not every such curve was filed as active); inconclusive = weak or mixed curves; inactive = flat fitted curve, though single readings scatter.
READOUT LABEL: activity, negative = inhibition

COMPOUND	activity, negative = inhibition
COc1ccccc1N1CCN(CC(O)COc2cc(OC)c(OC)c(OC)c2)CC1 (stereo not drawn)	inactive
Cc1ccc(Br)cc1	inactive
O=C(CCBr)N1CCN(C(=O)CCBr)CC1	inactive
Cc1nc2ccc(Cl)cc2[nH]1	inactive
CCOC(=O)CN1CCCC1=O	inactive

Here are 2 compounds. What values of activity, negative = inhibition were reported for them?
1. CN(C)CCc1c[nH]c2ccc(C[C@H]3COC(=O)N3)cc12
2. O=C(O)CCCCCCCCCC(=O)O

1: inactive; 2: inactive

Here are 6 compounds. What values of activity, negative = inhibition were reported for them?
1. COC(=O)N/N=C/c1c[n+]([O-])c2ccccc2[n+]1[O-]
2. C[C@]12C=CC(=O)C=C1[C@@H](F)C[C@@H]1[C@@H]2[C@@H](O)C[C@@]2(C)[C@H]1CC[C@]2(O)C(=O)CO
3. C=CCn1cc[n+](C)c1
4. CC(C)C[P+](C)(CC(C)C)CC(C)C
5. O=S(=O)(O)CC(O)CCl (stereo not drawn)
6. CC(C)c1cc(C(C)C)cc(C(C)C)c1

1. inactive
2. inactive
3. inactive
4. inactive
5. inactive
6. inactive

----------
Experiment: qHTS assay to identify small molecule agonists of the endoplasmic reticulum stress response signaling pathway - cell viability counter screen (AID 1159517);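 also: HeLa cells carrying an ER stress response element beta-lactamase reporter; % is scaled to controls: 0 for no effect and ±100 for the full control effect; nearly all actives have a fitted effect of over 50% in size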
Conditions: ESRE-bla HeLa viability, CellTiter-Glo luminescence, 5 h; series mostly up to 61 µM
Records with an inconclusive call do not appear. The source made the active and inactive calls. The call rests on the fitted dose curve.
READOUT LABEL: activity change, negative = cytotoxicity

Past entries and their recorded results:
COMPOUND	VAL
C=CC(C)(CCC=C(C)C)OC(=O)C(C)C (stereo not given)	inactive
O=C(O)/C=C(\CC(=O)O)C(=O)O	inactive
CCO/C=C1\N=C(c2ccccc2)OC1=O	inactive
CC1(C)C(=O)C(C)(C)C1=O	inactive
O=C(O)P(=O)(O)O	inactive
CN(C)c1cc(NC(=O)CNC(C)(C)C)c(O)c2c1C[C@H]1C[C@H]3[C@H](N(C)C)C(=O)C(C(N)=O)=C(O)[C@@]3(O)C(=O)C1=C2O	inactive
CN(C)CCc1c[nH]c2ccc(CS(=O)(=O)N3CCCC3)cc12	inactive
CC(C)OC(=O)C(C(=O)OC(C)C)=C1SC=CS1	inactive
CN(C)c1ccncc1	inactive
CC(C)(Sc1cc(C(C)(C)C)c(O)c(C(C)(C)C)c1)Sc1cc(C(C)(C)C)c(O)c(C(C)(C)C)c1	inactive

Here are 2 compounds. What values of activity change, negative = cytotoxicity were reported for them?
1. CCCCCCC(=O)c1ccccc1
2. CCCCCCCOC(C)=O

1: inactive; 2: inactive

Here are 4 compounds. What values of activity change, negative = cytotoxicity were reported for them?
1. CCCCS
2. CC(=O)c1ccc(O)c(C(N)=O)c1
3. CC(=O)/C=C/C=C1/C2CCC(C2)C1(C)C (stereo not given)
4. CC[C@@]1(c2ccccc2)NC(=O)N(C)C1=O

1: inactive; 2: inactive; 3: inactive; 4: inactive

----------
Please go through the items and note down their max response.
Experiment: qHTS RealTime-Glo MT Cell Viability Assay in HEK293 cells - 40 hour (AID 1224874); also: % is scaled to controls: 0 for no effect and ±100 for the full control effect; nearly all actives have a fitted effect of over 50% in size
Conditions: RealTime-Glo luminescence, hits give low values
Records with an inconclusive call do not appear.
One number for each entry, in %.

Past entries and their recorded results:
ENTRY SMILES	VAL
Cc1cc2c(cc1CC(=O)c1sccc1S(=O)(=O)Nc1onc(C)c1Cl)OCO2	6.15
COCCCOc1cc(C[C@@H](C[C@H](N)[C@@H](O)C[C@H](C(=O)NCC(C)(C)C(N)=O)C(C)C)C(C)C)ccc1OC	2.37

Notebook: `C=CCn1cc[n+](C)c1` , max response read as -3.76

Value source: PubChem BioAssay (Tox21)
